# Target System: cathepsin K (Homo sapiens, UniProt P43235)
# Sequence (P43235 115-329): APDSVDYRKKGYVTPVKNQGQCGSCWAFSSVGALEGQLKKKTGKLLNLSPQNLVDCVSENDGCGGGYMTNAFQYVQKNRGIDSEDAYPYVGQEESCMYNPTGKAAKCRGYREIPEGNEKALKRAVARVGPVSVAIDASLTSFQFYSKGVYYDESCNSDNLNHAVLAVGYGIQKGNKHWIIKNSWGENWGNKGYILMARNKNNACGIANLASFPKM
# Measurement Notes: Inhibitory activity assay against cathepsin K (enzyme assay)
# Assay type: biochemical
# Conditions Used: Z-Phe-Arg-AMC 10 μM, enzyme 1 nM, pH 5.5, 30 minutes
Endpoint: IC50 (nM)

Example results:
Compound | IC50 [nM]
N#Cc1nccc(C2(NC(=O)Nc3ccc(-c4ccc(C(=O)NCCc5c[nH]cn5)cc4)cc3)CCCCC2)n1 [Example 184] | 0.2
COc1ccccc1CNC(=O)NC1(c2ccnc(C#N)n2)CCCC1 [Example 68] | 219
N#Cc1nccc(C2(NC(=O)Nc3ccc(Cl)c(C(F)(F)F)c3)CCCCC2)n1 [Example 93] | 23.9
N#Cc1nccc(C2(NC(=O)OCc3ccccc3C(F)(F)F)CCCCC2)n1 [Example 20] | 32.9
N#Cc1nccc(C2(NC(=O)Nc3ccc(-c4ccccc4C(F)(F)F)c(C(F)(F)F)c3)CCCCC2)n1 [Example 176] | 122

(I) Cc1ccc(C)c(NC(=O)NC2(c3ccnc(C#N)n3)CCC(C)(C)CC2)c1 [Example 84]
(II) N#Cc1nccc(C2(NC(=O)NCc3ccccc3C(F)(F)F)CCCC2)n1 [Example 56]
(III) N#Cc1nccc(C2(NC(=O)Nc3ccc(-c4ccc(C(F)(F)F)cc4)cc3)CCCCC2)n1 [Example 114]
Ascending by IC50, please: list the compounds accordingly. # the answer lists labels in the order requested
I, III, II
